Sourced from patent US20140120095A1

# ASSAY_TARGET: T1, recombinant human VEGF165 (human, UniProt P15692-4 27-191, biotinylated in the competition assays)
# T1 construct: Bought protein; also called hVEGF165; rhVEGF165
# T1 sequence (P15692 other isoform, or with tags, fused parts or gaps): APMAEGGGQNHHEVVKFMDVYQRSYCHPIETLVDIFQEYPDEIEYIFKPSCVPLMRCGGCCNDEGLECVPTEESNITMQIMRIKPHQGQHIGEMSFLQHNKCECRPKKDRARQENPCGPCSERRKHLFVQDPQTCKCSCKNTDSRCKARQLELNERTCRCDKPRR
# TEST_DESCRIPTION: ELISA, hVEGF165/hVEGFR1-Fc competition
# Set-up: concentration or dose not given beside the values
Overview of reported % inhibition across a group of binders:
Give the number; % is assumed, so skip it.

// known answers, use as guide
{"columns": ["BINDER", "% inhibition (%)"],
 "data": [
  ["VEGFBII010 (VHH, not shown: small tags and cut ends, Homodimeric bivalent anti-VEGF VHH; also called VEGFBII23B04-35GS-23B04) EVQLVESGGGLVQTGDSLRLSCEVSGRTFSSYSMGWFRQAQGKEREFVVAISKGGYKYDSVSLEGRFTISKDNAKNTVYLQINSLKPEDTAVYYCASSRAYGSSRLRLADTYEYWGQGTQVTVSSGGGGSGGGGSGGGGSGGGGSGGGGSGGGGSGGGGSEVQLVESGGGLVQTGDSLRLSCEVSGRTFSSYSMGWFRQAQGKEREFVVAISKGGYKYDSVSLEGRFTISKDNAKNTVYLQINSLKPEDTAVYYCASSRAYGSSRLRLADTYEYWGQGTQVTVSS", 67],
  ["VEGFBII021 (VHH, not shown: small tags and cut ends, Bivalent (heterodimeric) anti-VEGF VHH; also called VEGFBII23B04-40GS-5B05) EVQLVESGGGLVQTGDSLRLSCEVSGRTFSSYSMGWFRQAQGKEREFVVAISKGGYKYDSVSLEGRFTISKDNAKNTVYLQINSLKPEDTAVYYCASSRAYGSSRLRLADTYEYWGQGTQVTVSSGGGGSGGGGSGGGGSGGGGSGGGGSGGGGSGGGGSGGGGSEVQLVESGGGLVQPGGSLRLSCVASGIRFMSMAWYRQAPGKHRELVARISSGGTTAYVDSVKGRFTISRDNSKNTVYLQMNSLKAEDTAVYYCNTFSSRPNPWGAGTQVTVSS", 97],
  ["VEGFBII024 (VHH, not shown: small tags and cut ends, Bivalent anti-VEGF VHH; also called VEGFBII23B04-40GS-86H09) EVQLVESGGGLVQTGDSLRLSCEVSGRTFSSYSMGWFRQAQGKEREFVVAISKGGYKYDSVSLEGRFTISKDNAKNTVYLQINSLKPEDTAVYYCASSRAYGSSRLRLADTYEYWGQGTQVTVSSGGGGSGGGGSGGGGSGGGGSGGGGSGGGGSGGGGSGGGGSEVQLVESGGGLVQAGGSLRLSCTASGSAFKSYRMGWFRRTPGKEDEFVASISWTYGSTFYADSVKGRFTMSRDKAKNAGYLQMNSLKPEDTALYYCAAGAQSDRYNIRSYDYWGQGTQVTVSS", 92]
]}

INPUT: State, in one line, measured % inhibition of VEGFBII022 (VHH, not shown: small tags and cut ends, Bivalent (heterodimeric) anti-VEGF VHH; also called VEGFBII23B04-9GS-5B05) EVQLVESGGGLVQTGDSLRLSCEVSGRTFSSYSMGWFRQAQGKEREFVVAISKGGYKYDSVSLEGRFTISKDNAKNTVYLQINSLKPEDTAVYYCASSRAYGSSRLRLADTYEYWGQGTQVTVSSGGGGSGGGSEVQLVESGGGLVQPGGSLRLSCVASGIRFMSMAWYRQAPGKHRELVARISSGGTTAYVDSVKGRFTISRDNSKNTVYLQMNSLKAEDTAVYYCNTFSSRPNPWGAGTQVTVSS
OUTPUT: 89
